- System: Plasmodium berghei
- Assay Method Text: Luciferase/luciferin-expressing antifolate-resistant parasites were used to infect a culture of HepG2 cells that were pre-incubated with compounds. Infected hepatocytes emit light due to the luciferase reaction. Assay results are presented as the percent inhibition of light emission compared to control. […]
- Assay type: functional
- Experimental Setup: sporozoite, PBLUC_HILL_SLOPE 9.42, PBLUC_R_SQUARED 0.55, read-out: LUCIFERASE INFECTION ASSAY - IC50
Metric: IC50 (µM)
Quick reminder: number only, in µM, skip the unit.

Consider Cc1c(-c2ccc(Cl)c(S(=O)(=O)N(C)c3ccccc3)c2)oc2ccc(F)cc2c1=O . Its measured IC50 is 3.52
